Listing: apparent KD of MS2 coat protein of selected sequences
- Test system: MS2 coat protein
- method.summary: apparent KD of MS2 coat protein, switch ON state; designed switch direction (-1 OFF switch, 1 ON switch): -1; higher = weaker reporter binding
- assay.setup: FMN input: 0 or 200 uM; Eterna round: R93 (includes R88 designs)
Number only, in nM; omit the unit.

// below: answered sequences
CCUGUGUGAGGAUAUGGUAAAAAAAAAAAAAAAAAGCUCCUCCAGAAGGCACAUGAGGAUCACCCAUGUCGUGG [Jolly's Folly 15 - Jieux - Exclusion 4] | 18.9
AAGAUCAGAGGAUAUACAUAAGGUGAUGGAAACAUCGCCAAACAUGAGGAUCACCCAUGUAGAAGGCUGAUCAA [Mat - Exclusion 2 - JL mod - D61] | 35.7

Item AAAAAGCUAGGAUAUACGAAAAAAAAGGGUAGAAAAAAAAAACAUGAGGAUCACCCAUGUAGAAGGAGCAAAAA [Mat - Exclusion 2 - Tesla mod - D34] has what recorded apparent KD of MS2 coat protein?
51.5

And for AAAAUGUGAGGAUAUGUACGAAAAAAUAAAAAAAUAAAAGUACAGAAGGCACAUGAGGAUCACCCAUGUGAAAA [EX4 396: Minimal 9] ?
28.3

Repeat with AAAAAACAUGAGGAUCACCCAUGUGAGGAUAUACGAAAGUAGAAGGCACUAAAAAAAAAAAGAAGGAAAAAAAA [Meechl Ex1 R2 m0]
24.2

Here is the next sequence: AAGAAGUGAGGAUAUGCUGCUCGUCACAAAAGUGAUGAGUAGCAGAAGGCACAUGAGGAUCACCCAUGUAAAGA [JL eternac mod 1]
40.6

Moving on to the next sequence: AAGAAGGUAGGAUAUACUAGGGCAACUAAUGCAAAGAUAGAACAUGAGGAUCACCCAUGUAGAAGGGCCAGAAA [JR_Exc002_Sub402]
35.7

What would you report for AAAGGGUCAGGAUAUCGAUGAAUAAUAAAACAAAGGAACAUCGAGAAGGGACAUGAGGAUCACCCAUGUAUAAC [May 80] ?
42.4

Repeat for the following sequence: AACUGACAUGAGGAUCACCCAUGUCAGGAUAUGCAUCUUAGGAAAAAAAAACUAAGAUGCAGAAGGGACAUGGG [Design 3: Super Stable 3]
16.8

Entry to check: GGUUGGCGAGGAUAUACAUGAGGAUCACCCAUGUGAGAGUAAAAAGUGAGAAAGAAAAGUAGAAGGCGCUGACG [salish99-ex3-46]
27.1

---

- Tested on: MS2 coat protein
- method.summary: apparent KD of MS2 coat protein; designed switch direction (-1 OFF switch, 1 ON switch): -1; higher = weaker reporter binding
- assay.setup: Eterna round: R95; input ligand: none
measure.name: apparent KD of MS2 coat protein (µM)
Your answer should be a plain number; it is taken to be in µM.

Solved entries:
AAAGGUGAGUAGGAUAUCCACGCACGAAUAAAGGGAGAAGGACUUACAUGAGGAUCACCCAUGUAAGGUGGUAA [Orte] (puzzle: Exclusion 6) | 0.0138
GGAAGUAGAAACCGAUCCUACAUGAGGAUCACCCAUGUAGCAAGACGUGCACGCGAAGCUCGUCAGACUACCAGAAA [salish99_TOv1_r3_009] (puzzle: Sensor v3, turn-off variant 1) | 0.293

Consider now this further sequence.
For the record UUUUACAAGCCAGAUCCUCACAUGAGGAUCACCCAUGUGCUCGUCUGUUUUUGUACUAUCACGUUUGUGAUAGUGUU [Level Boss var2-09] (puzzle: Sensor v3, turn-off variant 1) , what value of apparent KD of MS2 coat protein is listed for MS2 coat protein?
0.189

---

- Tested on: MS2 coat protein
- method.summary: apparent KD of MS2 coat protein; designed switch direction (-1 OFF switch, 1 ON switch): 1; higher = weaker reporter binding
- assay.setup: input ligand: microRNA oligo, concentration not stated
measure.name: apparent KD of MS2 coat protein (nM)
// units = nM; emit number, no label

Recorded results for 3 sequences are shown here.
GGUAUCAGCACAGGAUAUGCUAUCCUUUGGGUAGCAGAAGGGUGGACAUGAGGAUCACCCAUGUGGGUGCCAGGGCGUGAGCCC [JL SSNG1 1.86] (Eterna round: R96, puzzle: Same State NG 1) | 75.9
AGAUGUUAAUCAGGAUAUGGGCACAUGAGGAUCACCCAUGUAAAUUAGAUACUAUGUGGUCAAGUCUAGAAGGGAUGGCUAACA [SameState NG2 #81] (Eterna round: R96, puzzle: Same State NG 2) | 145
AAGAAACAUGAGGAUCACCCAUGUAAGAUAAACACAGGAUAUGCGAAUAAAAUAAAUAAAGCAGAAGGGUGAAGAA [Mat - Same State 1 - Tesla mod - D150] (Eterna round: R96, puzzle: Same State 1) | 38.9

We next turn to a different sequence, shown below.
Lab note: need apparent KD of MS2 coat protein for GUAGCAUACCGAGGAUAUUCAUAUUAAAUACAUGAGGAUCACCCAUGUUAGGCCAAAAGGCCUUGGGAGAAGGCGGAAUGCUAC [Xeonanis - 20 Mod2] (Eterna round: R96, puzzle: Same State NG 2) on MS2 coat protein, anyone have it?
33.6

---

- System: MS2 coat protein
- method.summary: apparent KD of MS2 coat protein; designed switch direction (-1 OFF switch, 1 ON switch): 1; higher = weaker reporter binding
- assay.setup: input ligand: FMN 200 uM
Recorded apparent KD of MS2 coat protein values for a group of sequences are listed next.
Numbers only here, please. The scale is nM.

GGUAGGUUACUACCAAACAUGAGGAUCACCCAUGUUGAUGGGAAGGAUAUGGUACCUUUUAGGUACCAGAAGGUCUAAUCGAUC [NGss mod of JL's mod of Fisker 4] (Eterna round: R96, puzzle: Same State NG 3) | 120

Which apparent KD of MS2 coat protein value is on record for ACUUACAUGGUAGGAUAUGUCCGUCUAGCUGACACAGAAGGGCCAAGCUCUACGACAUGAGGAUCACCCAUGUGAAGGAGAGGC [Eternabot solution 49] (Eterna round: R96, puzzle: Same State NG 1) ?
15.1

---

apparent KD of MS2 coat protein by entry:
- System: MS2 coat protein
- method.summary: apparent KD of MS2 coat protein; designed switch direction (-1 OFF switch, 1 ON switch): 1; higher = weaker reporter binding
- assay.setup: Eterna round: R95; input ligand: FMN 200 uM
Output should be the measured figure followed by the unit it is expressed in.

Use these answered entries as a reference point.
AGCUUGUAACAUGAGGAUCACCCAUGUACAAGCUUUUUGCUCGUUUUACCCGGGCCCGGCGAUUACACGGGCCCGGG [Optimized Design] (puzzle: Sensor for hsa-mir-208a version 2) | 10.1 nM
ACGCAGCUGGGUGAGGAUAUCGGUGGUAAAACAUGAGGAUCACCCAUGUCCGAAGCUCGGACUUCCGAGAAGGCGCCCGGCUGCG [Soinraesar] (puzzle: Same State 2) | 11.4 nM
GACAAUCUAUCUGAGGAUAUCAUGAAGAAAACAUGAGGAUCACCCAUGUGCAGGAUAACUGCAAAUGAGAAGGCAGAUAGAUUGU [Mat - Same State 2 - Mod - D6] (puzzle: Same State 2) | 17.1 nM

Entry under review: CGAUGAUACUUAGGAAGAAGAGUUGAAGUACAUGAGGAUCACCCAUGUCAGAGCUUUUUGCUCGUCAUGAACAGGAA [JR_SHM208a_Sub006] (puzzle: Sensor for hsa-mir-208a) . Reported apparent KD of MS2 coat protein?
47.9 nM

Same read-out for CGUAGGUAGCUGGAGGAUAUUCGAGUGGUAACAUGAGGAUCACCCAUGUGGAUAGAGGAACAUGAGGAGAAGGCUAGCUGCCUGC [JL-ss2-3.20 JL mod] (puzzle: Same State 2) ?
11.3 nM

Proceed to CUCAAAACAAGUUGCAGUGUUCGUCUUUCACAUGAGGAUCACCCAUGUAAUAGCCCAGUGGAAGCGCUCGGGCCACC [Ditixe] (puzzle: Sensor for hsa-mir-208a)
55.3 nM

Then this sequence: AGUCCAGCCUGAGCUGGACAAAAGCAUGUACAUGAGGAUCACCCAUGUCAUGUACAAGCUUUUUGCUAGUCUUAAAA [Mat - hsa-mir-208a - Mod of JL - D12] (puzzle: Sensor for hsa-mir-208a)
413 nM

---

Below, each entry is listed alongside its reported apparent KD of MS2 coat protein.
- Tested on: MS2 coat protein
- method.summary: apparent KD of MS2 coat protein; designed switch direction (-1 OFF switch, 1 ON switch): -1; higher = weaker reporter binding
- assay.setup: input ligand: FMN 200 uM
Give your result in µM as a bare value.

AGUCAAGAUGAGGAUAUCCGUGUAACAAACGCAGGAGAAGGCGUCACAUGAGGAUCACCCAUGUUGCCUCUAAG [Eternabot (L1) Solution 92] (Eterna round: R97, puzzle: Exclusion 6) | 0.0459
UAAACAUGGAUAUAACAGUACAUGAGGAUCACCCAUGUUAAUAUGAUAGAUUAUAACAAGUUUUUUUGUCGUCUUAA [Tabletop] (Eterna round: R97, puzzle: Sensor, turn-off variant 1) | 0.085
AGAGUGCUGCGAGGAUAUACAUGAGGAUCACCCAUGUAAACGUGUGAGGCAAAGCCUCACACGAUGUAGAAGGCGCAGUACUCA [Mat - Exclusion NG 2 - Mod of JL - D37] (Eterna round: R96, puzzle: Exclusion NG 2) | 0.0196
AUAAUGUAAGGAUAUCAGUCGACUAGCUUCGGCUAGUCGACUGAGAAGGUACAUGAGGAUCACCCAUGUGGUUC [E4/11-A1] (Eterna round: R97, puzzle: Exclusion 4) | 0.118

// switching to the query sequence
Param item = GAUCACUGAGGAUAUACACAGAUACAAAGUAUCUGAUAGUGACAUGAGGAUCACCCAUGUAGAAGGCAGAGGUC [Omei Ex2 B8] (Eterna round: R97, puzzle: Exclusion 2) ; retrieve measured apparent KD of MS2 coat protein.
0.433
